Target: Human recombinant 5-LOX (Homo sapiens, UniProt P09917)
Construct: purchased Cayman Chemical
Sequence (P09917 whole entry): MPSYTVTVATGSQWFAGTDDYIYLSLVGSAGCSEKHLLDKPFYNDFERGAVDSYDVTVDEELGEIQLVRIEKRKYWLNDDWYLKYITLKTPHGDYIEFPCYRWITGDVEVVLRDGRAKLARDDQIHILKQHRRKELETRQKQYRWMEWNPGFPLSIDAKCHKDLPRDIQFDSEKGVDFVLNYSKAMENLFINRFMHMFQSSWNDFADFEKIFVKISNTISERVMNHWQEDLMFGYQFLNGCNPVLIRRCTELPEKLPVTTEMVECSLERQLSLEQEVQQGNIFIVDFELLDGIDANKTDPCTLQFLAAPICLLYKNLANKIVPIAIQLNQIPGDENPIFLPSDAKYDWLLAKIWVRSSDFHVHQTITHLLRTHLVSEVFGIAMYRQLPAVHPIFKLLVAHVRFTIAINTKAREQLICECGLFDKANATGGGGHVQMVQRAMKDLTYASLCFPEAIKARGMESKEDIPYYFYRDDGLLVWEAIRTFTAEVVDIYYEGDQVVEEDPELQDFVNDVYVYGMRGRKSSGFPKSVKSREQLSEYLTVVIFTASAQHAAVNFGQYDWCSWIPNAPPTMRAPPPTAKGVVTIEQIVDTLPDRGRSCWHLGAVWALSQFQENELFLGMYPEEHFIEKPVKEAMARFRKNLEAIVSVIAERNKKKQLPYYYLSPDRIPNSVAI
Assay: 5-Lipoxygenase inhibitory assay
Type: biochemical
Details: 5-LOX IC50 (µM)

compound	target.or.system	units.label	IC50
CCC(=O)OCC(=O)[C@@]1(OC(=O)CC)[C@@H](C)C[C@H]2[C@@H]3CCC4=CC(=O)C=C[C@]4(C)[C@@]3(F)[C@@H](O)C[C@@]21C [BD, betamethasone dipropionate]	Human recombinant 5-LOX (Homo sapiens, UniProt P09917)	µM	2.08

====

Molecular target: Human recombinant COX-2 (Homo sapiens)
Construct: purchased Sigma Aldrich C0858; host or cells: insect cells
Sequence (P35354 18-604): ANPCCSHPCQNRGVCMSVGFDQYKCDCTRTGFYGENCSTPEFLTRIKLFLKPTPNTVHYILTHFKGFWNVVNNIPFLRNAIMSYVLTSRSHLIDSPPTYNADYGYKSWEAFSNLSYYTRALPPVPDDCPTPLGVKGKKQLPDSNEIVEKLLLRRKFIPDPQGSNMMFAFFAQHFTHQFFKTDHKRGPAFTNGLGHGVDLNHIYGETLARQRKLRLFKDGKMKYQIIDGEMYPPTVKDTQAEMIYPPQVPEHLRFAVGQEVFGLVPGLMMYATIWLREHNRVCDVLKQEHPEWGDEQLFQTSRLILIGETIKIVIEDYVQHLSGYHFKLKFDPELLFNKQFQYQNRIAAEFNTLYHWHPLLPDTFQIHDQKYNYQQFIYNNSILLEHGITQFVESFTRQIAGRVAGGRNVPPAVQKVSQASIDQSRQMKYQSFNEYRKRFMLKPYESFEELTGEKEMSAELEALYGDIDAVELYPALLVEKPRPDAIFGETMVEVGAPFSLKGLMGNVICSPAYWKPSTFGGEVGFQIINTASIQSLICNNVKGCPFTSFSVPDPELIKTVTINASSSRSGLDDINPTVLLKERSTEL
Assay: Cyclooxygenase-2 inhibitory assay
Assay type: biochemical
Details: read-out: COX-2 IC50
Experimental: This method was adapted and modified from Chew et al. (2018). Human recombinant COX-2 expressed in insect cells (Sigma Aldrich, C0858) was used in this experiment. Initially, a solution of 100 mM Tris HCl buffer, pH 8, was plated out in each well of a 96-well plate. […] The absorbance was measured at 611 nm. […] The percentage of inhibition was calculated by Equation (7), and the IC50 values were determined. (7) % Inhibition=Absorbance control−Absorbance sample/Absorbance control×100

molecule	target.or.system	IC50 (µM)
COc1cc(O)c2c(c1)O[C@H](c1ccccc1)CC2=O	Human recombinant COX-2 (Homo sapiens)	286
CCC(=O)OCC(=O)[C@@]1(OC(=O)CC)[C@@H](C)C[C@H]2[C@@H]3CCC4=CC(=O)C=C[C@]4(C)[C@@]3(F)[C@@H](O)C[C@@]21C [BD, betamethasone dipropionate]	Human recombinant COX-2 (Homo sapiens)	240
